Entries and their Barnyardgrass plant response rating
# Test system: barnyardgrass (Echinochloa crus-galli)
# Assay method text: Test A preemergence, barnyardgrass
# Format: in vivo
# Condition details: Preemergence, 125 g ai/ha; visual injury on 0 to 100 scale (0 no effect, 100 complete control), approximately 10 days
# Description: Seeds of plant species selected from barnyardgrass (Echinochloa crus-galli), kochia (Bassia scoparia), ragweed (common ragweed, Ambrosia artemisiifolia), Ryegrass, Italian (Italian ryegrass, Lolium multiflorum), Foxtail, Giant (giant foxtail, Setaria faberi), and pigweed (Amaranthus retroflexus) were planted into a blend of loam soil and sand and treated preemergence with a directed soil spray using test chemicals formulated in a non-phytotoxic solvent mixture which included a surfactant. […]
Answer with a bare number; do not write a unit.

Compound	Barnyardgrass plant response rating
Cc1cc(C)c(N(S(=O)(=O)C(F)(F)F)S(=O)(=O)C(F)(F)F)cc1-c1cc(C(C)C)nn(C)c1=O [Compound 47]	50
Cc1cc(C)c(C2=NOC3CCCCC23)cc1NS(=O)(=O)C(F)(F)F (stereo not shown) [Compound 123]	100
Cc1ccc(=O)n(-c2cc(NS(=O)(=O)C(F)(F)F)c(C)cc2C)n1 [Compound 85]	70

Any idea what Barnyardgrass plant response rating was measured for CCc1cc(-c2cc(N(S(=O)(=O)C(F)(F)F)S(=O)(=O)C(F)(F)F)c(C)cc2C)c(=O)n(C)n1 [Compound 28] ? 60

Any idea what Barnyardgrass plant response rating was measured for Cc1cc(C)c(C2=NOC3CCCCC23)cc1NS(=O)(=O)C(F)(F)F (racemic) [Compound 125] ? 100

Any idea what Barnyardgrass plant response rating was measured for COc1cc(-c2cc(NS(=O)(=O)C(F)(F)F)c(C)cc2C)c(=O)n(C)n1 [Compound 70] ? 90

Any idea what Barnyardgrass plant response rating was measured for COC1CCN(C(=O)c2cc(NS(=O)(=O)C(F)(F)F)c(C)c(F)c2C)CC1 [Compound 110] ? 40

Any idea what Barnyardgrass plant response rating was measured for C#CCN(CC#C)C(=O)c1cc(NS(=O)(=O)C(F)(F)F)c(C)cc1C [Compound 187] ? 100

###

Entries and their Ragweed plant response rating
# System: ragweed (common ragweed, Ambrosia artemisiifolia)
# Assay method text: Test A preemergence, ragweed
# Format: in vivo
# Condition details: Preemergence, 125 g ai/ha; visual injury on 0 to 100 scale (0 no effect, 100 complete control), approximately 10 days
Answer with a bare number; do not write a unit.

Compound	Reported value
COC1(OC)CCN(C(=O)c2cc(NS(=O)(=O)C(F)(F)F)c(C)cc2C)CC1	60
Cc1cc(C)c(C2=NOC(C(C)(C)C)C2)cc1NS(=O)(=O)C(F)(F)F (centres unmarked)	20
CCCn1nccc(-c2cc(NS(=O)(=O)C(F)(F)F)c(C)cc2C)c1=O	0
Cc1ccc(=O)n(-c2cc(NS(=O)(=O)C(F)(F)F)c(C)cc2C)n1	0
COC1CCN(C(=O)c2cc(NS(=O)(=O)C(F)(F)F)c(C)c(F)c2C)CC1	80
Cc1cc(Cl)c(C2=NOC3(CCCC3)C2)cc1NS(=O)(=O)C(F)(F)F	20
CC(=O)N(c1cc(-c2ccnn(C)c2=O)c(C)cc1C)S(=O)(=O)C(F)(F)F	70

Any idea what Ragweed plant response rating was measured for Cc1cc(Cl)c(C2=NOC(C)(C)C2)cc1N(S(=O)(=O)C(F)(F)F)S(=O)(=O)C(F)(F)F ? 80
